- experimental system: Signal transducer and activator of transcription 3 (Homo sapiens)
- Sequence (P40763 whole entry): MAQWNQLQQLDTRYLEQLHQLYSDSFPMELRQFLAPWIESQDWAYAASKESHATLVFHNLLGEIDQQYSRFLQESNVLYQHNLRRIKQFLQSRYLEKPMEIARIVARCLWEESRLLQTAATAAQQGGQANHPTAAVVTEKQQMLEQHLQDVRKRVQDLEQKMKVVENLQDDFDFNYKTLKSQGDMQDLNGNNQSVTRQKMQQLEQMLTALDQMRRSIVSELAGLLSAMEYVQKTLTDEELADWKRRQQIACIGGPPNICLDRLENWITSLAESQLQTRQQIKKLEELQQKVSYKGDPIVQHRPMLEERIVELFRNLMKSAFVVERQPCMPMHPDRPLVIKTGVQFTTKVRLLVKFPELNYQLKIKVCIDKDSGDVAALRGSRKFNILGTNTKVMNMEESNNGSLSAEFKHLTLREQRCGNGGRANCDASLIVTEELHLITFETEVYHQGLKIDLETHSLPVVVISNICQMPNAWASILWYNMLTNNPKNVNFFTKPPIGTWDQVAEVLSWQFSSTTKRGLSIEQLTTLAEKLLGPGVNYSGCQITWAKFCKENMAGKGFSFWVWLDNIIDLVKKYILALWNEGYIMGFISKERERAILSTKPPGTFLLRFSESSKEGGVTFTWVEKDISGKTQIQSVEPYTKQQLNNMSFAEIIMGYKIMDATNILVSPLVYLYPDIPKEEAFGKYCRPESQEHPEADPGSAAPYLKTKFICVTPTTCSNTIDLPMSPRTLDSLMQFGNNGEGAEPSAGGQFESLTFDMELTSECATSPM
- protocol notes: Inhibition of STAT3 transcriptional activity in human HaCaT cells after 6 hrs by luciferase reporter gene assay
pIC50: −log10 of the molar value.
metric: pIC50

COc1cc(/C=C/C(=O)CC(=O)c2ccc(O)c(OC)c2)ccc1O | 4.45
COc1cc(/C=C/C(=O)/C=C/c2cc(F)c(O)c(OC)c2)cc(F)c1O | 4.71
COc1cc(/C=C/C(=O)/C=C/c2cc(CC=C(C)C)c(O)c(OC)c2)cc(CC=C(C)C)c1O | 4.65
COc1cc(/C=C/c2cc(-c3ccc(O)c(OC)c3)[nH]n2)ccc1O | 4.74
COc1cc(/C=C/C(=O)/C=C/c2ccc(O)c(OC)c2)ccc1O | 5.22
COc1cc(/C=C/c2cc(/C=C/c3ccc(O)c(OC)c3)[nH]n2)ccc1O | 4.79
COc1cc(/C=C/C(=O)CC(=O)/C=C/c2cc(F)c(O)c(OC)c2)cc(F)c1O | 4.81
